target: T1, human GFRα3 expressed with a C-terminal myc-myc-hexahistidine tag (human, UniProt O60609 32-374, biotinylated (sites not given) in ELISA format 2 and in the Octet cross-competition; not in SPR); assay: SPR, Ab captured, 37C
T1 construct: also called hGFRα3-mmh; hGFRα3-mmH
T1 sequence (O60609 other isoform, or with tags, fused parts or gaps limits assumed): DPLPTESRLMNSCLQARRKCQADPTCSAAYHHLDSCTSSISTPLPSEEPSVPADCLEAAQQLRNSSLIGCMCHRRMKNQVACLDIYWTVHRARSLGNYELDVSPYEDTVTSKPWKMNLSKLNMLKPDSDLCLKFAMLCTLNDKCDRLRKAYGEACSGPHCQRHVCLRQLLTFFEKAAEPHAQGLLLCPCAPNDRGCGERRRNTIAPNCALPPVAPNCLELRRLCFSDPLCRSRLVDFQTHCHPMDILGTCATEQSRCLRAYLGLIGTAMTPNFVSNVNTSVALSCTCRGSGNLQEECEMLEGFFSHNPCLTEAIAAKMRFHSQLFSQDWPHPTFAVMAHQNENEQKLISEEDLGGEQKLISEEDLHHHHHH
MEASUREMENT_NAME: Kd (nM)
The reply should contain only the number, in nM.

Consider the worked cases shown below.
{"columns": ["BINDER", "DISPLAY_UNIT", "NUMBER"],
 "data": [
  ["H4H2294S (antibody, human IgG4, V domains shown, human IgG4 Fc (H4H)) VH: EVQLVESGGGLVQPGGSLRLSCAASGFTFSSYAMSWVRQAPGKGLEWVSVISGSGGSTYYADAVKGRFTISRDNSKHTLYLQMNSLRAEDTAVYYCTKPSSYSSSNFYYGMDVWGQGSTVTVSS VL: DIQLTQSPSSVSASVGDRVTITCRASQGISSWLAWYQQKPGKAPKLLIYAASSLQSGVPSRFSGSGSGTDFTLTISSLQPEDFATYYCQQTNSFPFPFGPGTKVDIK", "nM", 0.338],
  ["H1M2243N (antibody, V domains shown, chimeric, human variable and mouse constant domains (H1M)) VH: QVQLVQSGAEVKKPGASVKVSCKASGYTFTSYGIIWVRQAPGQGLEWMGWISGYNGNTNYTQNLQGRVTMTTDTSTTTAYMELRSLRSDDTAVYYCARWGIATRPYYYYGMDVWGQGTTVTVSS VL: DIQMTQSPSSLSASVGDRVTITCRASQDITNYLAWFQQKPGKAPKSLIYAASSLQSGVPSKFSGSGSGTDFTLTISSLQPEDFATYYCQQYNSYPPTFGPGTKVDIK", "nM", 4.35]
]}

Now for another entry.
Req: Looking for the measured Kd of H4H2344S (antibody, human IgG4, V domains shown, human IgG4 Fc (H4H)) VH: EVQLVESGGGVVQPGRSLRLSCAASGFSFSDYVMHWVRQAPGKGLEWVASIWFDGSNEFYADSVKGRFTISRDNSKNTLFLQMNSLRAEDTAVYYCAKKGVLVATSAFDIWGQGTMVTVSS VL: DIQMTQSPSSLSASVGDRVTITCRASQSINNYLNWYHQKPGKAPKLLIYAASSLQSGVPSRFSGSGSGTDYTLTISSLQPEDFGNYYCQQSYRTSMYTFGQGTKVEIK , can you help?
Resp: 2.58
